Items are presented alongside their recorded Zeta potential (mV).
test: LNP size, PDI and zeta potential by Dynamic Light Scattering (Method A); assay type: physicochemical; conditions: LNP formulated with the lipid, DLS
readoutLabel: Zeta potential (mV)

1) CCCCC/C=C\C/C=C\CCCCCCCCOC(CCCCCCCCCCCCCCC)O[Si](C)(C)OCCCCCCN(CCO)CCO (stereo not shown) [Example 43]; −7.944
2) CCCCC/C=C\C/C=C\CCCCCCCCOC(CCCCCCC/C=C\C/C=C\CCCCC)O[Si](C)(C)OCCCCCCN(C)CCO (stereo not shown) [Example 56]; −10.08
3) CCCCCCCC/C=C\CCCCCCCCOC(=O)C(C)(C)CC(OCCCCCCCC/C=C\CCCCCCCC)O[Si](C)(C)OCCCCCCN1CCCCC1CO (stereo not shown) [Example 89]; −10.93
4) CCCCC/C=C\C/C=C\CCCCCCCC(OCCCCCCCCCCCCCCCC)O[Si](C)(C)OCCCCCCN(CCO)CCO (stereo not shown) [Example 44]; −8.273
